- Test system: 276233-004-R-J1-PDC complex spheroid viability
- test: Anticancer human tumor 276233-004-R-J1-PDC patient-derived colon adenocarcinoma cell line growth inhibition [GQUAD]
- setup.conditions: second compound 1 µM; first compound 0.316 µM; hits give low values
- Source text: DNA G-quadruplex Stabilizer Agents in Combinations in Complex Spheroids A high-throughput screen of multi-cell type tumor spheroids was designed to identify active combinations of DNA G-quadruplex stabilizer agents and targeted small molecules. […] Compounds. […] If the clinical Cmax for an agent had not been determined, the highest concentration tested was 10 microM. […]
attribute.measured: viability, T/C (%)
One number for each entry, in %.

State recorded viability, T/C for all listed molecules.
1. CC1COCCN1c1cc(-c2ccnn2C)c2ccnc(-c3ccn[nH]3)c2n1 (stereo unspecified) + Cc1[nH]c2ccc(F)cc2c1-c1nc2c3cccnc3c3ncccc3c2[nH]1
2. CC1COCCN1c1cc(-c2ccnn2C)c2ccnc(-c3ccn[nH]3)c2n1 (stereo unspecified) + Cc1cnc(CNC(=O)c2c(=O)c3ccc(N4CCCN(C)CC4)nc3n3c2sc2ccccc23)cn1
3. Nc1ccn(C2OC(CO)C(O)C2(F)F)c(=O)n1 (stereo unspecified) + Cc1cnc(CNC(=O)c2c(=O)c3ccc(N4CCCN(C)CC4)nc3n3c2sc2ccccc23)cn1
4. O=c1[nH]cc(F)c(=O)[nH]1 + CN(C)c1ccc(Nc2c3ccc(NC(=O)CCN4CCCC4)cc3nc3cc(NC(=O)CCN4CCCC4)ccc23)cc1
5. CC1COCCN1c1cc(C2(O)CC3CCC(C2)O3)c2cnn(-c3ccn[nH]3)c2n1 (stereo unspecified) + CN(C)c1ccc(Nc2c3ccc(NC(=O)CCN4CCCC4)cc3nc3cc(NC(=O)CCN4CCCC4)ccc23)cc1

1: 65.4; 2: 67.4; 3: 105; 4: 63.7; 5: 50.1

Kindly state the measured viability, T/C obtained for COc1cc(C2c3cc4c(cc3C(OC3OC5COC(C)OC5C(O)C3O)C3COC(=O)C23)OCO4)cc(OC)c1O (stereo unspecified) + Cc1[nH]c2ccc(F)cc2c1-c1nc2c3cccnc3c3ncccc3c2[nH]1 with 276233-004-R-J1-PDC complex spheroid viability.
71.4

====

- Tested on: 276233-004-R-J1-PDC complex spheroid viability
- test: Anticancer human tumor 276233-004-R-J1-PDC cell line growth inhibition [GQUAD];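 also: spheroids exposed to drugs for seven days; 100% = DMSO vehicle control viability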
- setup.conditions: second compound 3.16 µM; first compound 0.0316 µM; hits give low values
- Source text: DNA G-quadruplex Stabilizer Agents in Combinations in Complex Spheroids A high-throughput screen of multi-cell type tumor spheroids was designed to identify active combinations of DNA G-quadruplex stabilizer agents and targeted small molecules. […] Compounds. […] If the clinical Cmax for an agent had not been determined, the highest concentration tested was 10 microM. […]
attribute.measured: viability, T/C (%)
Numbers only, in %.

Solved entries (count: 2):
CC(C)(O)C1CCC(Nc2ccc3ncc(-c4cccc(C(F)(F)F)c4)n3n2)CC1 (stereo not given) + CN(C)c1ccc(Nc2c3ccc(NC(=O)CCN4CCCC4)cc3nc3cc(NC(=O)CCN4CCCC4)ccc23)cc1; 67.5
COc1cccc2c1C(=O)c1c(O)c3c(c(O)c1C2=O)CC(O)(C(=O)CO)CC3OC1CC(N)C(O)C(C)O1 (stereo not given) + Cc1[nH]c2ccc(F)cc2c1-c1nc2c3cccnc3c3ncccc3c2[nH]1; 50.7

State recorded viability, T/C for all listed compounds.
1. C=CCn1c(=O)c2cnc(Nc3ccc(N4CCN(C)CC4)cc3)nc2n1-c1cccc(C(C)(C)O)n1 + Cc1[nH]c2ccc(F)cc2c1-c1nc2c3cccnc3c3ncccc3c2[nH]1
2. COc1cc(C2c3cc4c(cc3C(OC3OC5COC(C)OC5C(O)C3O)C3COC(=O)C23)OCO4)cc(OC)c1O (stereo not given) + CN(C)c1ccc(Nc2c3ccc(NC(=O)CCN4CCCC4)cc3nc3cc(NC(=O)CCN4CCCC4)ccc23)cc1
3. CCCS(=O)(=O)Nc1ccc(F)c(C(=O)c2c[nH]c3ncc(-c4ccc(Cl)cc4)cc23)c1F + Cc1cnc(CNC(=O)c2c(=O)c3ccc(N4CCCN(C)CC4)nc3n3c2sc2ccccc23)cn1

1. 16.3
2. 54.8
3. 94.2

State recorded viability, T/C for all listed compounds.
1. CC(=O)O[C@H]1C(=O)[C@@]2(C)[C@H]([C@H](OC(=O)c3ccccc3)[C@]3(O)C[C@H](OC(=O)[C@H](O)[C@@H](NC(=O)c4ccccc4)c4ccccc4)C(C)=C1C3(C)C)[C@]1(OC(C)=O)CO[C@@H]1C[C@@H]2O + CN(C)c1ccc(Nc2c3ccc(NC(=O)CCN4CCCC4)cc3nc3cc(NC(=O)CCN4CCCC4)ccc23)cc1
2. CC1COCCN1c1cc(-c2ccnn2C)c2ccnc(-c3ccn[nH]3)c2n1 (stereo not given) + CN(C)c1ccc(Nc2c3ccc(NC(=O)CCN4CCCC4)cc3nc3cc(NC(=O)CCN4CCCC4)ccc23)cc1
3. Cc1[nH]c2ccccc2c1CCNCc1ccc(/C=C/C(=O)NO)cc1 + Cc1cnc(CNC(=O)c2c(=O)c3ccc(N4CCCN(C)CC4)nc3n3c2sc2ccccc23)cn1

[44.4, 58.5, 62.3]

State recorded viability, T/C for all listed compounds.
1. COc1ccc([C@@H](O)c2cc(-c3ncnc4cc(N5CCOCC5)ccc34)c(F)cc2Cl)nn1 + Cc1[nH]c2ccc(F)cc2c1-c1nc2c3cccnc3c3ncccc3c2[nH]1
2. CC[C@@]1(O)C(=O)OCc2c1cc1n(c2=O)Cc2cc3c(CN(C)C)c(O)ccc3nc2-1 + CN(C)c1ccc(Nc2c3ccc(NC(=O)CCN4CCCC4)cc3nc3cc(NC(=O)CCN4CCCC4)ccc23)cc1
3. O=c1[nH]cc(F)c(=O)[nH]1 + Cc1cnc(CNC(=O)c2c(=O)c3ccc(N4CCCN(C)CC4)nc3n3c2sc2ccccc23)cn1
4. C#Cc1c(F)ccc2cc(O)cc(-c3ncc4c(N5CC6CCC(C5)N6)nc(OCC56CCCN5CC(F)C6)nc4c3F)c12 (stereo not given) + CN(C)c1ccc(Nc2c3ccc(NC(=O)CCN4CCCC4)cc3nc3cc(NC(=O)CCN4CCCC4)ccc23)cc1
5. Cn1ncnc1[C@H]1c2n[nH]c(=O)c3cc(F)cc(c23)N[C@@H]1c1ccc(F)cc1 + Cc1[nH]c2ccc(F)cc2c1-c1nc2c3cccnc3c3ncccc3c2[nH]1
6. O=C(c1cc(Cc2n[nH]c(=O)c3ccccc23)ccc1F)N1CCN(C(=O)C2CC2)CC1 + CN(C)c1ccc(Nc2c3ccc(NC(=O)CCN4CCCC4)cc3nc3cc(NC(=O)CCN4CCCC4)ccc23)cc1
7. CC(C)n1c(=O)n(C)c2cnc3cc(F)c(-c4ccc(OCCCN5CCCCC5)nc4)cc3c21 + Cc1cnc(CNC(=O)c2c(=O)c3ccc(N4CCCN(C)CC4)nc3n3c2sc2ccccc23)cn1

1: 59; 2: 50; 3: 82.7; 4: 51.2; 5: 54.2; 6: 52.7; 7: 80.4

State recorded viability, T/C for all listed compounds.
1. CC(C)n1c(=O)n(C)c2cnc3cc(F)c(-c4ccc(OCCCN5CCCCC5)nc4)cc3c21 + Cc1[nH]c2ccc(F)cc2c1-c1nc2c3cccnc3c3ncccc3c2[nH]1
2. COc1ccc([C@@H](O)c2cc(-c3ncnc4cc(N5CCOCC5)ccc34)c(F)cc2Cl)nn1 + CN(C)c1ccc(Nc2c3ccc(NC(=O)CCN4CCCC4)cc3nc3cc(NC(=O)CCN4CCCC4)ccc23)cc1
3. C=CC(=O)N1CCN(c2nc(=O)n(-c3c(C)ccnc3C(C)C)c3nc(-c4c(O)cccc4F)c(F)cc23)C(C)C1 (stereo not given) + Cc1[nH]c2ccc(F)cc2c1-c1nc2c3cccnc3c3ncccc3c2[nH]1
4. Cc1[nH]c2ccccc2c1CCNCc1ccc(/C=C/C(=O)NO)cc1 + CN(C)c1ccc(Nc2c3ccc(NC(=O)CCN4CCCC4)cc3nc3cc(NC(=O)CCN4CCCC4)ccc23)cc1
5. COc1cc(C2c3cc4c(cc3C(OC3OC5COC(C)OC5C(O)C3O)C3COC(=O)C23)OCO4)cc(OC)c1O (stereo not given) + Cc1[nH]c2ccc(F)cc2c1-c1nc2c3cccnc3c3ncccc3c2[nH]1

1. 52
2. 47.4
3. 70.7
4. 40.3
5. 53
